Each record here notes measured fraction unbound.
Assay: Plasma protein binding by equilibrium dialysis
Assay type: in vitro ADME
Conditions: mouse plasma; read-out: fu [%] (mouse)
measure: fraction unbound

INSERT INTO assay_data (smiles_repr, measure, obs_value) VALUES
  ('COC[C@]1(OC)CC[C@@]2(CC1)NC(=O)C(c1cc(-c3ccc(Cl)c(F)c3)ccc1C)=C2O', 'fraction unbound', 0.0217),
  ('Cc1ccc(-c2ccc(Cl)cc2)cc1C1=C(O)[C@]2(CC[C@H](C(F)(F)F)CC2)NC1=O', 'fraction unbound', 0.0241),
  ('CO[C@]1(C(F)(F)F)CC[C@]2(CC1)NC(=O)C(c1cc(-c3ccc(Cl)c(F)c3)ccc1C)=C2O', 'fraction unbound', 0.014),
  ('COC[C@H]1CC[C@]2(CC1)NC(=O)C(c1cc(-c3ccc(Cl)c(F)c3)ccc1C)=C2O', 'fraction unbound', 0.0176),
  ('Cc1ccc(-c2ccc(Cl)c(F)c2)cc1C1=C(O)[C@]2(CC[C@H](C(F)(F)F)CC2)NC1=O', 'fraction unbound', 0.019),
  ('CO[C@]1(C(F)(F)F)CC[C@]2(CC1)NC(=O)C(c1cc(-c3ccc(Cl)cc3)ccc1C)=C2O', 'fraction unbound', 0.0082),
  ('COC[C@]1(OC)CC[C@@]2(CC1)NC(=O)C(c1cc(-c3ccc(Cl)cc3)ccc1C)=C2O', 'fraction unbound', 0.038),
  ('COC[C@H]1CC[C@]2(CC1)NC(=O)C(c1cc(-c3ccc(Cl)cc3)ccc1C)=C2O', 'fraction unbound', 0.109);
